# test_protocol: Metabolic stability in Wistar rat liver microsomes assessed as intrinsic clearance at 1 uM in presence of NADPH by HPLC-UV analysis
# Format: ADME, Microsome
# experimental_parameters: read-out: CLH
Below: a set of entries, each annotated with reported microsomal CLint at 1 µM.
Only the number, expressed in µL/min/mg, is required.

Solved cases (5 shown):
Cc1ccccc1N1CCN(C(=O)C2CN(C(=O)C3CCCC3)Cc3cc(Cl)ccc32)CC1 (racemic) : 179
Cc1ccccc1N1CCN(C(=O)N2CCNc3cc(Cl)ccc32)CC1 : 265
CN1CCN(C(=O)C2CCN(c3ccccn3)CC2)c2ccc(Cl)cc21 : 404
Cc1ccccc1N1CCN(C(=O)N2C[C@@H](C(=O)C3CCCC3)Cc3cc(Cl)ccc32)CC1 : 170
CN(C)CCn1cc(C(=O)N2CCC3(CC2)OCc2ccccc23)c2ccc(Cl)cc21 [RO-5028442] : 130

**Query** If you can, please state the reported microsomal CLint at 1 µM value of `C[C@H](NC(=O)[C@@H](CC(=O)N1CCC(N2CCCCC2)CC1)N1C(=O)[C@@H](N2C(=O)OC[C@@H]2c2ccccc2)[C@H]1/C=C/c1ccccc1)c1ccccc1` .
**Result** 31

**Query** If you can, please state the reported microsomal CLint at 1 µM value of `CC(=O)N1Cc2cc(Cl)ccc2N(C(=O)N2CCN(c3ccccc3C)CC2)C1` .
**Result** 212

----------
# test_protocol: Metabolic stability in human liver microsomes assessed as intrinsic clearance at 1 uM in presence of NADPH by HPLC-UV analysis
# Format: ADME, Microsome
# experimental_parameters: read-out: CLH
assay_endpoint: microsomal CLint at 1 µM (µL/min/mg)
Only the number, expressed in µL/min/mg, is required.

CC(=O)N1Cc2cc(Cl)ccc2N(C(=O)N2CCN(c3ccccc3C)CC2)C1 : 88

**Query** If you can, please state the reported microsomal CLint at 1 µM value of `Cc1ccccc1N1CCN(C(=O)N2CCNc3cc(Cl)ccc32)CC1` .
**Result** 210

**Query** If you can, please state the reported microsomal CLint at 1 µM value of `CN1CCN(C(=O)C2CCN(c3ccccn3)CC2)c2ccc(Cl)cc21` .
**Result** 80

**Query** If you can, please state the reported microsomal CLint at 1 µM value of `Cc1ccccc1N1CCN(C(=O)N2C[C@@H](C(=O)C3CCCC3)Cc3cc(Cl)ccc32)CC1` .
**Result** 72

----------
# system: Vasopressin V1a receptor (Homo sapiens, UniProt P37288)
# Sequence (P37288 whole entry): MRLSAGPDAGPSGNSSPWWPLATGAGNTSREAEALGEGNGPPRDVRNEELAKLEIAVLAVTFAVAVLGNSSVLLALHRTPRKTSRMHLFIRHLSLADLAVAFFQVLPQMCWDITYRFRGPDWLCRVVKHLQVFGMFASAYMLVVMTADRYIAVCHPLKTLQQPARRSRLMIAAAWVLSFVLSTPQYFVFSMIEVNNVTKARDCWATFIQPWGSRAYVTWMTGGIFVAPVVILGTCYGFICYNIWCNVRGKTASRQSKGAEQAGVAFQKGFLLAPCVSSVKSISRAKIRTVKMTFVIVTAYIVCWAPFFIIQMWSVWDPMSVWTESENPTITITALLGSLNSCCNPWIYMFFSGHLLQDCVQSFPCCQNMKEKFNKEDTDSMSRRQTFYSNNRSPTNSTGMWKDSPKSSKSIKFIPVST
# test_protocol: Antagonist activity at human V1a receptor expressed in human 1321N1 cells assessed as decrease in Arg8-vasopressin-stimulated calcium flux by fluorometric calcium assay
pIC50: −log10 of the molar value.
Binary call on pIC50: t from 7 upward, f beneath that.

Cc1ccccc1N1CCN(C(=O)N2CCc3cc(Cl)ccc32)CC1 : f
Cc1ccccc1N1CCN(C(=O)N2CN(S(C)(=O)=O)Cc3cc(Cl)ccc32)CC1 : t
CN1CCN(C(=O)N2CCN(c3ncccc3Cl)CC2)c2ccc(Cl)cc21 : t
O=C(N1CCN(c2ncccc2Cl)CC1)N1CCNc2cc(Cl)ccc21 : f
Cc1ccccc1N1CCN(C(=O)N2CCCc3cc(Cl)ccc32)CC1 : f

Continue with the compound presented below.
**Query** Decide: pIC50 of `Cc1ccccc1N1CCN(C(=O)N2C[C@@H](C(=O)C3CCCC3)Cc3cc(Cl)ccc32)CC1` >= 7?
**Result** t

----------
# test_protocol: Efflux ratio of Apparent permeability across apical to basolateral side in human Caco-2 cells at 10 uM by HPLC-UV or UHPLC-MS/MS analysis
# Assay type: ADME, cell-based
assay_endpoint: efflux ratio at 10 µM
Give the value as a plain number.

Solved cases (2 shown):
CC(=O)N1Cc2cc(Cl)ccc2N(C(=O)N2CCN(c3ccccc3C)CC2)C1 : 0.7
CN(C)CCn1cc(C(=O)N2CCC3(CC2)OCc2ccccc23)c2ccc(Cl)cc21 : 0.9

Then this molecule:
**Query** If you can, please state the reported efflux ratio at 10 µM value of `CN1CCN(C(=O)C2CCN(c3ccccn3)CC2)c2ccc(Cl)cc21` .
**Result** 0.7

----------
# test_protocol: Apparent permeability across apical to basolateral side in human Caco-2 cells at 10 uM by HPLC-UV or UHPLC-MS/MS analysis
# Format: ADME, cell-based
assay_endpoint: Papp A→B at 10 µM

CN1CCN(C(=O)C2CCN(c3ccccn3)CC2)c2ccc(Cl)cc21 : 48 ×10⁻⁶ cm/s
CC(=O)N1Cc2cc(Cl)ccc2N(C(=O)N2CCN(c3ccccc3C)CC2)C1 : 39 ×10⁻⁶ cm/s
CN(C)CCn1cc(C(=O)N2CCC3(CC2)OCc2ccccc23)c2ccc(Cl)cc21 [RO-5028442] : 15 ×10⁻⁶ cm/s

Then this molecule:
**Query** If you can, please state the reported Papp A→B at 10 µM value of `C[C@H](NC(=O)[C@@H](CC(=O)N1CCC(N2CCCCC2)CC1)N1C(=O)[C@@H](N2C(=O)OC[C@@H]2c2ccccc2)[C@H]1/C=C/c1ccccc1)c1ccccc1` .
**Result** 4.7 ×10⁻⁶ cm/s

----------
# Ki per entry for Vasopressin V1a receptor (Homo sapiens, UniProt P37288)
Only the number, expressed in nM, is required.

Solved cases (5 shown):
Cc1ccccc1N1CCN(C(=O)C2CN(C(=O)C3CCCCC3)Cc3cc(Cl)ccc32)CC1 (racemic) : 5
CN1CCN(C(=O)C2CCN(c3ccccn3)CC2)c2ccc(Cl)cc21 : 14
Cc1ccccc1N1CCN(C(=O)N2CN(C(=O)CO)Cc3cc(Cl)ccc32)CC1 : 4
Cc1ccccc1N1CCN(C(=O)N2CCNc3ccccc32)CC1 : 70
Cc1ccccc1N1CCN(C(=O)N2CN(C)Cc3cc(Cl)ccc32)CC1 : 3

Then this molecule:
**Query** If you can, please state the reported Ki value of `C[C@H]1CN(C(=O)N2CCNc3cc(Cl)ccc32)CCN1c1ccccn1` .
**Result** 62

----------
# test_protocol: Metabolic stability in NMRI mouse liver microsomes assessed as intrinsic clearance at 1 uM in presence of NADPH by HPLC-UV analysis
# Format: ADME, Microsome
# experimental_parameters: read-out: CLH
assay_endpoint: microsomal CLint at 1 µM
Don't forget the unit after the number, please.

Cc1ccccc1N1CCN(C(=O)C2CN(C(=O)C3CCCC3)Cc3cc(Cl)ccc32)CC1 (racemic) : 341 µL/min/mg
Cc1ccccc1N1CCN(C(=O)N2CCNc3cc(Cl)ccc32)CC1 : 66 µL/min/mg

**Query** If you can, please state the reported microsomal CLint at 1 µM value of `C[C@H](NC(=O)[C@@H](CC(=O)N1CCC(N2CCCCC2)CC1)N1C(=O)[C@@H](N2C(=O)OC[C@@H]2c2ccccc2)[C@H]1/C=C/c1ccccc1)c1ccccc1` .
**Result** 199 µL/min/mg

**Query** If you can, please state the reported microsomal CLint at 1 µM value of `CC(=O)N1Cc2cc(Cl)ccc2N(C(=O)N2CCN(c3ccccc3C)CC2)C1` .
**Result** 324 µL/min/mg

**Query** If you can, please state the reported microsomal CLint at 1 µM value of `Cc1ccccc1N1CCN(C(=O)N2C[C@@H](C(=O)C3CCCC3)Cc3cc(Cl)ccc32)CC1` .
**Result** 235 µL/min/mg

**Query** If you can, please state the reported microsomal CLint at 1 µM value of `CN(C)CCn1cc(C(=O)N2CCC3(CC2)OCc2ccccc23)c2ccc(Cl)cc21` .
**Result** 341 µL/min/mg

**Query** If you can, please state the reported microsomal CLint at 1 µM value of `CN1CCN(C(=O)C2CCN(c3ccccn3)CC2)c2ccc(Cl)cc21` .
**Result** 132 µL/min/mg

----------
# system: Vasopressin V1a receptor (Homo sapiens)
# test_protocol: Antagonist activity at human V1a receptor expressed in human 1321N1 cells assessed as decrease in Arg8-vasopressin-stimulated calcium flux by fluorometric calcium assay
Below: a set of entries, each annotated with reported IC50.
Only the number, expressed in nM, is required.

Solved cases (3 shown):
Cc1ccccc1N1CCN(C(=O)N2CNCc3cc(Cl)ccc32)CC1 : 40
Cc1cccnc1N1CCN(C(=O)N2CCNc3cc(Cl)ccc32)CC1 : 450
Cc1cccnc1N1CCN(C(=O)N2CCNc3cc(Cl)ccc32)[C@H](C)C1 : 750

**Query** If you can, please state the reported IC50 value of `O=C(N1CCN(Cc2ccccc2)CC1)N1CCNc2cc(Cl)ccc21` .
**Result** 8300

**Query** If you can, please state the reported IC50 value of `Cc1ccccc1N1CCN(C(=O)N2CN(C(=O)C3CCCC3)Cc3cc(Cl)ccc32)CC1` .
**Result** 11

**Query** If you can, please state the reported IC50 value of Cc1ccccc1N1CCN(C(=O)C2CN(C(=O)C3CCCCC3)Cc3cc(Cl)ccc32)CC1 (single isomer, unassigned; (+)) .
**Result** 21

**Query** If you can, please state the reported IC50 value of `Cc1ccccc1C1CCN(C(=O)N2CCNc3cc(Cl)ccc32)CC1` .
**Result** 380

**Query** If you can, please state the reported IC50 value of `Cc1ccccc1N1CCN(C(=O)N2CCNc3ccc(Cl)cc32)CC1` .
**Result** 1400

**Query** If you can, please state the reported IC50 value of `C[C@H]1CN(C(=O)N2CCNc3cc(Cl)ccc32)CCN1c1ccccn1` .
**Result** 1000

**Query** If you can, please state the reported IC50 value of `Cc1ccccc1N1CCN(C(=O)N2CCN(C)c3cc(Cl)ccc32)CC1` .
**Result** 300
